System: HCT116
Assay conditions: 72 h; ICRF193 0 nM
Structures can show the parent of a compound that is named as a salt.

| Compound | Experimental system | IC50 cell viability |
| --- | --- | --- |
| CCc1cc2c(s1)-n1c(C)nnc1CN=C2c1ccccc1Cl | HCT116 | > 45.8 µM |
| O=C1c2c(O)cccc2C([C@@H]2O[C@H](CO)[C@@H](O)[C@H](O)[C@H]2O)c2cc(CO)cc(O)c21 (stereo not given in full) | HCT116 | > 45.8 µM |
| O=C(O)CNC(=O)CNC(=O)CNC(=O)CSC(=O)c1ccccc1 [Betiatide] | HCT116 | > 45.8 µM |
| CN1CCC2=C(C1)c1ccccc1Cc1ccccc12 | HCT116 | 20.6 µM |
| CC1(C)S[C@@H]2[C@H](N)C(=O)N2[C@H]1C(=O)O | HCT116 | > 45.8 µM |
| CC(C)C[C@H](NC(=O)[C@H](Cc1ccccc1)NC(=O)c1cnccn1)B(O)O | HCT116 | 0.00517 µM |
| C=CC(=O)N1CCC[C@@H](n2nc(-c3ccc(Oc4ccccc4)cc3)c3c(N)ncnc32)C1 | HCT116 | 23.1 µM |
| O=C(Nc1cccc2c(=O)cc(-c3nnn[nH]3)oc12)c1ccc(OCCCCc2ccccc2)cc1 [Pranlukast hydrate] | HCT116 | > 45.8 µM |
| CN(C)CCC=C1c2ccccc2CCc2ccccc21 [Amitriptyline hydrochloride] | HCT116 | > 45.8 µM |
| O=C(c1cc(Cc2n[nH]c(=O)c3ccccc23)ccc1F)N1CCN(C(=O)C2CC2)CC1 | HCT116 | > 45.8 µM |
| COC(=O)N[C@H](C(=O)N1CCC[C@H]1c1ncc(-c2ccc(-c3ccc(-c4cnc([C@@H]5CCCN5C(=O)[C@@H](NC(=O)OC)C(C)C)[nH]4)cc3)cc2)[nH]1)C(C)C [Daclatasvir dihydrochloride] | HCT116 | 29.1 µM |
| CC(=O)O[C@H]1C[C@H](O[C@H]2[C@@H](O)C[C@H](O[C@H]3[C@@H](O)C[C@H](O[C@H]4CC[C@@]5(C)[C@H](CC[C@@H]6[C@@H]5CC[C@]5(C)[C@@H](C7=CC(=O)OC7)CC[C@]65O)C4)O[C@@H]3C)O[C@@H]2C)O[C@H](C)[C@H]1O [Digitoxin 3'''-Acetate] | HCT116 | 0.231 µM |
| S=C1SCN(Cc2ccccc2)CN1Cc1ccccc1 | HCT116 | > 45.8 µM |
| Cc1nc(C)c(Cl)c(O)c1Cl | HCT116 | > 45.8 µM |
| CN1CCN(C(=O)O[C@H]2c3nccnc3C(=O)N2c2ccc(Cl)cn2)CC1 | HCT116 | > 45.8 µM |

====

Test system: HCT116
Assay procedure: efficacy (maximum % inhibition of viability vs DMSO); higher = more cytotoxic
Assay conditions: 72 h; ICRF193 0 nM
Assign Y whenever efficacy does not fall below 90%; assign N whenever it does.

| Compound | Experimental system | Qualitative label |
| --- | --- | --- |
| C/C=C(/C(=C/C)c1ccc(O)cc1)c1ccc(O)cc1 | HCT116 | N |
| CN1CCC2=C(C1)c1ccccc1Cc1ccccc12 | HCT116 | N |
| CC(CN1c2ccccc2Sc2ccc(S(=O)(=O)N(C)C)cc21)N(C)C (stereo not given) | HCT116 | N |
| O=C1CCc2ccc(OCCCCN3CCN(c4cccc(Cl)c4Cl)CC3)cc2N1 | HCT116 | N |
| COC1=C(OC)C(=O)C(CCCCCCCCCCO)=C(C)C1=O | HCT116 | N |
| NS(=O)(=O)c1ccc(-n2nc(C(F)(F)F)cc2-c2ccc(F)cc2)cc1 | HCT116 | N |
| NC(=O)C1(N2CCCCC2)CCN(CCCN2c3ccccc3CCc3ccc(Cl)cc32)CC1 | HCT116 | Y |
| C=C1/C(=C\C=C2/CCC[C@]3(C)[C@@H]([C@H](C)CCCC(O)(C(F)(F)F)C(F)(F)F)CC[C@@H]23)C[C@@H](O)C[C@@H]1O | HCT116 | N |
| CCCCCOc1ccccc1/C(=C\SC)n1ccnc1 | HCT116 | N |
| Oc1cccc2cccnc12 [OXYQUINOLINE HEMISULFATE] | HCT116 | N |
| CO/N=C1\C[C@]2(C[C@@H]3C[C@@H](C/C=C(\C)C[C@@H](C)/C=C/C=C4\CO[C@@H]5[C@H](O)C(C)=C[C@@H](C(=O)O3)[C@]45O)O2)O[C@H](/C(C)=C/C(C)C)[C@H]1C | HCT116 | Y |
| CO[C@H]1C[C@H](O[C@H]2[C@H](C)O[C@@H](O[C@@H]3/C(C)=C/C[C@@H]4C[C@@H](C[C@]5(C=C[C@H](C)[C@@H](C6CCCCC6)O5)O4)OC(=O)[C@@H]4C=C(C)[C@@H](O)[C@H]5OC/C(=C\C=C\[C@@H]3C)[C@]54O)C[C@@H]2OC)O[C@@H](C)[C@@H]1O | HCT116 | Y |
| Nc1nc(=S)c2[nH]cnc2[nH]1 | HCT116 | Y |
| COC(=O)C1=C(C)NC(C)=C(C(=O)OCC(C)C)C1c1ccccc1[N+](=O)[O-] (stereo not given) | HCT116 | N |
| COC(=O)Nc1nc2cc(C(=O)c3ccccc3)ccc2[nH]1 | HCT116 | N |

====

The entries below are paired with their reported IC50 cell viability.
Test system: HCT116
Assay conditions: 72 h; ICRF193 0 nM
Where a name gives a salt, the structure may show the parent alone.

| Compound | IC50 cell viability |
| --- | --- |
| Cc1cc(C(C)(C)C)cc(C)c1CC1=NCCN1 [Xylometazoline hydrochloride] | > 45.8 µM |
| O=C/C=C/c1ccccc1 | > 45.8 µM |
| CN(C)c1ccc2nc3ccc(=[N+](C)C)cc-3sc2c1 | 3.66 µM |
| O=C(NCC(O)CO)c1c(I)c(C(=O)NCC(O)CO)c(I)c(N(CCO)C(=O)CO)c1I (centres undefined) | > 45.8 µM |
| CCCCC1C(=O)N(c2ccccc2)N(c2ccc(O)cc2)C1=O (centres undefined) | 11.6 µM |
| CCCCCCCCCCCCCCCCCCO | > 45.8 µM |
| CCN(CC)C(=O)Nc1ccc(OCC(O)CNC(C)(C)C)c(C(C)=O)c1 (centres undefined) [Celiprolol hydrochloride] | > 45.8 µM |
| CNCC(=O)OCc1cccnc1N(C)C(=O)OC(C)[n+]1cnn(C[C@](O)(c2cc(F)ccc2F)[C@@H](C)c2nc(-c3ccc(C#N)cc3)cs2)c1 (some centres undefined) [ISAVUCONAZONIUM SULFATE] | > 45.8 µM |
| CC(=O)[C@@]1(O)CC[C@H]2[C@@H]3CCC4=CC(=O)CC[C@@H]4[C@H]3CC[C@@]21C | > 45.8 µM |

====

System: HCT116
Assay conditions: 72 h; ICRF193 200 nM
Structures can show the parent of a compound that is named as a salt.

| Compound | Experimental system | IC50 cell viability |
| --- | --- | --- |
| CCCCOc1ccc(CC(=O)NO)cc1 | HCT116 | > 45.8 µM |
| CCN(CC)CCOC(=O)c1cccnc1 [Nicametate citrate] | HCT116 | > 45.8 µM |
| [O-][n+]1ccccc1[S-].[O-][n+]1ccccc1[S-].[Zn+2] | HCT116 | 2.06 µM |
| Cc1ccc(C(=O)C(=O)O)cc1C [Sodium 3, 4-dimethylphenyl-glyoxylate] | HCT116 | > 45.8 µM |
